- System: LCLC-103H
- Measurement Description: relative viability (nuclei count vs DMSO), 5 days (fraction); higher = more cells survive
- Measurement Context: first compound 2.53 µM
Binary label based on relative viability with cut-off 0.7: below gives fulfilled, not below gives not fulfilled.

Solved entries (count: 2):
COc1nc(C)cnc1NS(=O)(=O)c1cccnc1-c1ccc(-c2nnco2)cc1 [Zibotentan] + C[C@]1(O)C[C@@H](c2nc(-c3ccc4ccc(-c5ccccc5)nc4c3)c3c(N)nccn32)C1 [Linsitinib] (partner 1 µM) :: not fulfilled
COc1nc(C)cnc1NS(=O)(=O)c1cccnc1-c1ccc(-c2nnco2)cc1 [Zibotentan] + N=C(N)NC(=N)NCCc1ccccc1 [Phenformin] (partner 250 µM) :: fulfilled

Query string: Please let me know if COc1nc(C)cnc1NS(=O)(=O)c1cccnc1-c1ccc(-c2nnco2)cc1 [Zibotentan] + O=C(c1cc(Cc2n[nH]c(=O)c3ccccc23)ccc1F)N1CCN(C(=O)C2CC2)CC1 [Olaparib] (partner 8 µM) shows relative viability below 0.7.
Result string: not fulfilled

Query string: Please let me know if O=c1cc(-c2cccc3c2Sc2ccccc2S3)oc(N2CCOCC2)c1 + Cc1nc(NC(=O)N2CCC[C@H]2C(N)=O)sc1-c1ccnc(C(C)(C)C(F)(F)F)c1 [Alpelisib] (partner 2 µM) shows relative viability below 0.7.
Result string: not fulfilled

Query string: Please let me know if COc1nc(C)cnc1NS(=O)(=O)c1cccnc1-c1ccc(-c2nnco2)cc1 [Zibotentan] + CC(=O)c1c(C)c2cnc(Nc3ccc(N4CCNCC4)cn3)nc2n(C2CCCC2)c1=O [Palbociclib] (partner 0.5 µM) shows relative viability below 0.7.
Result string: fulfilled

Query string: Please let me know if O=c1cc(-c2cccc3c2Sc2ccccc2S3)oc(N2CCOCC2)c1 + Cc1nc(Nc2ncc(C(=O)Nc3c(C)cccc3Cl)s2)cc(N2CCN(CCO)CC2)n1 [Dasatinib] (partner 0.075 µM) shows relative viability below 0.7.
Result string: fulfilled

Query string: Please let me know if O=c1cc(-c2cccc3c2Sc2ccccc2S3)oc(N2CCOCC2)c1 + Nc1ncn([C@H]2C[C@H](O)[C@@H](CO)O2)c(=O)n1 [Decitabine] (partner 2 µM) shows relative viability below 0.7.
Result string: fulfilled
